System: Saccharomyces cerevisiae BY4741 SeMeCo community
Method Summary: mean cell size (pixel area) (pixels); higher = larger cells
Condition Info: 10 µM; 24 h; SM minimal medium
Where a name gives a salt, the structure may show the parent alone.
Measurement Kind: mean cell size
// no unit string in output, number only

Here are 3 molecules together with their reported answers.
O=C(c1ccccc1)c1ccc2n1CCC2C(=O)O (centres undefined) [Ketorolac]; 12.6
CC[C@@H]1C(=O)OC[C@@H]1Cc1cncn1C [Pilocarpine HCl]; 12.7
CN1CCN(C2=Nc3cc(Cl)ccc3Nc3ccccc32)CC1; 12.4

Look up Saccharomyces cerevisiae BY4741 SeMeCo community data: mean cell size of `CN(C)[C@@H]1C(O)=C(C(N)=O)C(=O)[C@@]2(O)C(O)=C3C(=O)c4c(O)cccc4[C@@](C)(O)[C@H]3[C@H](O)[C@@H]12` , then report it.
12.9

Look up Saccharomyces cerevisiae BY4741 SeMeCo community data: mean cell size of `CC(=O)Oc1ccc(C(=C2CCCCC2)c2ccc(OC(C)=O)cc2)cc1` , then report it.
12.3

Look up Saccharomyces cerevisiae BY4741 SeMeCo community data: mean cell size of CC(C(=O)O)c1ccc2c(c1)[nH]c1ccc(Cl)cc12 (centres undefined) , then report it.
13.8

Look up Saccharomyces cerevisiae BY4741 SeMeCo community data: mean cell size of CCCCc1oc2ccc(NS(C)(=O)=O)cc2c1C(=O)c1ccc(OCCCN(CCCC)CCCC)cc1 [Dronedarone HCl] , then report it.
12.2

Look up Saccharomyces cerevisiae BY4741 SeMeCo community data: mean cell size of `Cc1cc(-c2ccc(/N=N/c3ccc4c(S(=O)(=O)O)cc(S(=O)(=O)O)c(N)c4c3O)c(C)c2)ccc1/N=N/c1ccc2c(S(=O)(=O)O)cc(S(=O)(=O)O)c(N)c2c1O` , then report it.
13.5

Look up Saccharomyces cerevisiae BY4741 SeMeCo community data: mean cell size of `CC[C@H](C)[C@H](N)C1=N[C@H](C(=O)N[C@@H](CC(C)C)C(=O)N[C@H](CCC(=O)O)C(=O)N[C@H](C(=O)N[C@H]2CCCCNC(=O)[C@H](CC(N)=O)NC(=O)[C@@H](CC(=O)O)NC(=O)[C@H](Cc3cnc[nH]3)NC(=O)[C@@H](Cc3ccccc3)NC(=O)[C@H]([C@@H](C)CC)NC(=O)[C@@H](CCCN)NC2=O)[C@@H](C)CC)CS1` , then report it.
12

Look up Saccharomyces cerevisiae BY4741 SeMeCo community data: mean cell size of C1CCN2C[C@@H]3C[C@@H](CN4CCCC[C@@H]34)[C@H]2C1 [(-)-Sparteine Sulfate] , then report it.
12.2

Look up Saccharomyces cerevisiae BY4741 SeMeCo community data: mean cell size of `CCCCCc1ccc(C)cc1O` , then report it.
12.4

Look up Saccharomyces cerevisiae BY4741 SeMeCo community data: mean cell size of CCCN(CCC)CCc1cccc2c1CC(=O)N2 [Ropinirole HCl] , then report it.
12.4

Look up Saccharomyces cerevisiae BY4741 SeMeCo community data: mean cell size of CO/N=C(\C(=O)N[C@@H]1C(=O)N2C(C(=O)O)=C(CSC(=O)c3ccco3)CS[C@H]12)c1csc(N)n1 [Ceftiofur HCl] , then report it.
12.5

Look up Saccharomyces cerevisiae BY4741 SeMeCo community data: mean cell size of CCC(C)(Oc1ccc(C2(c3ccc(OC(C)(CC)C(=O)O)cc3)CCCCC2)cc1)C(=O)O (centres undefined) [Clinofibrate] , then report it.
13.2

====

System: Saccharomyces cerevisiae BY4741 SeMeCo community
Method Summary: z-score of subpopulation abundance vs DMSO median, subpopulation auxotrophic for LU; higher = larger share of this subpopulation than in DMSO controls
Condition Info: 10 µM; 24 h; SM minimal medium; subpopulation (auxotrophy): LU
z-score of subpopulation abundance by entry:
// no unit string in output, number only

Here are 3 compounds together with their reported answers.
Cc1nnc(SCC2=C(C(=O)O)N3C(=O)[C@@H](NC(=O)Cn4cc(Cl)c(=O)c(Cl)c4)[C@H]3SC2)s1; -0.24
Cc1nc(=O)c2cc(CN(C)c3ccc(C(=O)N[C@@H](CCC(=O)O)C(=O)O)s3)ccc2[nH]1; -1.62
O=C(Cn1cnnn1)N[C@@H]1C(=O)N2C(C(=O)O)=C(CSc3nncs3)CS[C@H]12 [Ceftezole sodium]; 0.2

Let us move to another entry and its z-score of subpopulation abundance.
Entry `O=C(c1ccc(OCCN2CCCCC2)cc1)c1c(-c2ccc(O)cc2)sc2cc(O)ccc12` needs its z-score of subpopulation abundance filled in; supply it.
-2.15

====

Tested on: Saccharomyces cerevisiae BY4741 SeMeCo community
Method Summary: z-score of subpopulation abundance vs DMSO median, subpopulation auxotrophic for HM; higher = larger share of this subpopulation than in DMSO controls
Condition Info: 10 µM; 24 h; SM minimal medium; subpopulation (auxotrophy): HM
Where a name gives a salt, the structure may show the parent alone.
Measurement Kind: z-score of subpopulation abundance
// no unit string in output, number only

Here are 3 compounds together with their reported answers.
O=C(Nc1cccc(C2=NCCN2)c1)Nc1cccc(C2=NCCN2)c1 [Imidocarb dipropionate]; -0.79
O=C1c2cccc3c2[C@H](CCC3)CN1[C@@H]1CN2CCC1CC2 [Palonosetron HCl]; -0.69
COc1ccc2cc([C@H](C)C(=O)O)ccc2c1 [Naproxen Sodium]; -0.61

Entry `O=c1ccc2ccc(OCCCCN3CCN(c4cccc5sccc45)CC3)cc2[nH]1` needs its z-score of subpopulation abundance filled in; supply it.
0.35

Entry `CCOc1ccc(NC(C)=O)cc1` needs its z-score of subpopulation abundance filled in; supply it.
0.08

====

System: Saccharomyces cerevisiae BY4741 SeMeCo community
Method Summary: z-score of subpopulation abundance vs DMSO median, subpopulation auxotrophic for L; higher = larger share of this subpopulation than in DMSO controls
Condition Info: 10 µM; 24 h; SM minimal medium; subpopulation (auxotrophy): L
Assign met to entries whose z-score of subpopulation abundance meets or exceeds -0.1; assign not met to the rest.

Example entries and their recorded answers appear below.
C[C@@H](c1ncncc1F)[C@](O)(Cn1cncn1)c1ccc(F)cc1F; not met
Cc1c(Cl)cccc1Nc1ccccc1C(=O)O; not met
COc1ccc(C2CNC(=O)C2)cc1OC1CCCC1 (stereo not drawn) [S- (+)-Rolipram]; not met
C[C@]12CCC(=O)C=C1[C@@H]1C[C@@H]1[C@H]1[C@@H]3[C@@H]4C[C@@H]4[C@@]4(CCC(=O)O4)[C@@]3(C)CC[C@@H]12; met

Evaluate `CC[C@H](C)[C@H](N)C1=N[C@H](C(=O)N[C@@H](CC(C)C)C(=O)N[C@H](CCC(=O)O)C(=O)N[C@H](C(=O)N[C@H]2CCCCNC(=O)[C@H](CC(N)=O)NC(=O)[C@@H](CC(=O)O)NC(=O)[C@H](Cc3cnc[nH]3)NC(=O)[C@@H](Cc3ccccc3)NC(=O)[C@H]([C@@H](C)CC)NC(=O)[C@@H](CCCN)NC2=O)[C@@H](C)CC)CS1` : z-score of subpopulation abundance at minimum -0.1?
met

Evaluate CC1=C(C(=O)O)N2C(=O)[C@@H](NC(=O)[C@H](N)C3=CCC=CC3)[C@H]2SC1 [Cefradine] : z-score of subpopulation abundance at minimum -0.1?
met

Evaluate `Cc1nc2n(c(=O)c1CCN1CCC(c3noc4cc(F)ccc34)CC1)CCCC2` : z-score of subpopulation abundance at minimum -0.1?
not met

Evaluate `CN1C(C(=O)Nc2ccccn2)=C(O)c2sc(Cl)cc2S1(=O)=O` : z-score of subpopulation abundance at minimum -0.1?
not met

Evaluate O=C1C(N(CO)C(=O)NCO)N(CO)C(=O)N1CO (stereo not given) : z-score of subpopulation abundance at minimum -0.1?
met

====

Tested on: Saccharomyces cerevisiae BY4741 SeMeCo community
Method Summary: z-score of subpopulation abundance vs DMSO median, subpopulation auxotrophic for HLM; higher = larger share of this subpopulation than in DMSO controls
Condition Info: 10 µM; 24 h; SM minimal medium; subpopulation (auxotrophy): HLM
Where a name gives a salt, the structure may show the parent alone.
z-score of subpopulation abundance by entry:
// no unit string in output, number only

Here are 4 molecules together with their reported answers.
Nc1ccc(S(=O)(=O)Nc2ccccn2)cc1 [Sulfapyridine]; -0.9
Cc1ccc(Sc2ccccc2N2CCNCC2)c(C)c1 [Vortioxetine]; 0.2
CN1CCN(CC(=O)N2c3ccccc3C(=O)Nc3cccnc32)CC1 [Pirenzepine dihydrochloride]; -0.87
CCCCCCCN(CC)CCCC(O)c1ccc(NS(C)(=O)=O)cc1 (stereo not given) [Ibutilide Fumarate]; -0.14

Let us move to another entry and its z-score of subpopulation abundance.
Entry CC[C@@]1(O)C(=O)OCc2c1cc1n(c2=O)Cc2cc3cc(O)ccc3nc2-1 [Hydroxy Camptothecine] needs its z-score of subpopulation abundance filled in; supply it.
1.86

====

Tested on: Saccharomyces cerevisiae BY4741 SeMeCo community
Method Summary: z-score of subpopulation abundance vs DMSO median, subpopulation auxotrophic for HLM; higher = larger share of this subpopulation than in DMSO controls
Condition Info: 10 µM; 24 h; SM minimal medium; subpopulation (auxotrophy): HLM
Where a name gives a salt, the structure may show the parent alone.
Assign true (1) to entries whose z-score of subpopulation abundance meets or exceeds 0.4; assign false (0) to the rest.

c1cnc2cc3c(cc2n1)[C@@H]1CNC[C@H]3C1 [Varenicline Tartrate]; true (1)
CCCC(=O)OCOC(=O)C1=C(C)NC(C)=C(C(=O)OC)C1c1cccc(Cl)c1Cl (stereo unspecified) [Clevidipine Butyrate]; true (1)
CN[C@@H]1[C@H](O[C@H]2[C@H](O[C@H]3[C@H](O)[C@@H](O)[C@H](NC(=N)N)[C@@H](O)[C@@H]3NC(=N)N)O[C@@H](C)[C@]2(O)CO)O[C@@H](CO)[C@H](O)[C@H]1O [Dihydrostreptomycin sulfate]; true (1)

Evaluate C=C1c2cccc(O)c2C(O)=C2C(=O)[C@]3(O)C(O)=C(C(N)=O)C(=O)[C@@H](N(C)C)[C@@H]3[C@@H](O)[C@H]12 [Methacycline HCl] : z-score of subpopulation abundance at minimum 0.4?
true (1)

Evaluate CNCCCN1c2ccccc2CCc2ccccc21 [Desipramine Hydrochloride] : z-score of subpopulation abundance at minimum 0.4?
false (0)

Evaluate NC(=NCCCCCCN=C(N)N=C(N)Nc1ccc(Cl)cc1)N=C(N)Nc1ccc(Cl)cc1 [Chlorhexidine?2HCl] : z-score of subpopulation abundance at minimum 0.4?
true (1)

Evaluate CO/N=C(/C(=O)N[C@@H]1C(=O)N2C(C(=O)OCOC(=O)C(C)(C)C)=C(C)CS[C@H]12)c1csc(N)n1 [Cefetamet pivoxil hydrochloride] : z-score of subpopulation abundance at minimum 0.4?
true (1)

Evaluate `CC1(C)[C@H](C(=O)O)N2C(=O)C[C@H]2S1(=O)=O` : z-score of subpopulation abundance at minimum 0.4?
false (0)

Evaluate CN(C)CCC[C@@]1(c2ccc(F)cc2)OCc2cc(C#N)ccc21 [Escitalopram Oxalate] : z-score of subpopulation abundance at minimum 0.4?
false (0)

Evaluate CCCCCC(=O)O[C@]1(C(C)=O)CC[C@H]2[C@@H]3CCC4=CC(=O)CC[C@]4(C)[C@H]3CC[C@@]21C [Hydroxyprogesterone caproate] : z-score of subpopulation abundance at minimum 0.4?
true (1)

Evaluate `C[C@@H](O)[C@H]1C(=O)N2C(C(=O)O)=C(SCCNC=N)C[C@H]12` : z-score of subpopulation abundance at minimum 0.4?
false (0)

Evaluate COc1ccc(CCN(C)CCCC(C#N)(c2ccc(OC)c(OC)c2)C(C)C)cc1OC (stereo unspecified) [Verapamil HCl] : z-score of subpopulation abundance at minimum 0.4?
true (1)

Evaluate `Oc1c(Cl)cc(Cl)c2cccnc12` : z-score of subpopulation abundance at minimum 0.4?
true (1)

Evaluate `CC(C)C(=O)c1c(C(C)C)nn2ccccc12` : z-score of subpopulation abundance at minimum 0.4?
false (0)

Evaluate CN[C@H]1CC[C@@H](c2ccc(Cl)c(Cl)c2)c2ccccc21 [Sertraline HCl] : z-score of subpopulation abundance at minimum 0.4?
false (0)

Evaluate C#CCC(Cc1cnc2nc(N)nc(N)c2n1)c1ccc(C(=O)N[C@@H](CCC(=O)O)C(=O)O)cc1 (stereo partly specified) [Pralatrexate] : z-score of subpopulation abundance at minimum 0.4?
true (1)
